- targetOfAssay: Delta-type opioid receptor (Mus musculus, UniProt P32300)
- Sequence (P32300 whole entry): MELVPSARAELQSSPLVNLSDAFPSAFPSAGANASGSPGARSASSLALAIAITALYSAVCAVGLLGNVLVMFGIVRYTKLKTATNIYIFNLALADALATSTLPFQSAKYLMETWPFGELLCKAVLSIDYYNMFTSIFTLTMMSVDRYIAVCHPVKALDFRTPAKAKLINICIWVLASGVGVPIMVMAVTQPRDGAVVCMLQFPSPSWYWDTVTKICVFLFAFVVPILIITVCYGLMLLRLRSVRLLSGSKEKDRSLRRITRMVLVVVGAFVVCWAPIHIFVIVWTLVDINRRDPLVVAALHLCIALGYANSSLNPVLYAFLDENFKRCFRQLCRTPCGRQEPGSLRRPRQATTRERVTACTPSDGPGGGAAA
- testMethodNotes: Displacement of [3H]DPDPE from delta opioid receptor in CD1 mouse whole brain minus cerebellum membranes by liquid scintillation counting
readoutType: Ki (µM)

Example molecules with recorded Ki:
molecule	numericValue
C=CC(C)(O)CC[C@@]1(C)[C@H](C)CC[C@@]2(C)C(C)=CC(=O)C[C@H]12 (stereo partly drawn)	23.5
COc1c(OC)c(O)c2c(=O)cc(-c3ccc(O)c(O)c3)oc2c1OC [SIDERITIFLAVONE]	12.5
C=CC(C)(O)CC[C@@]1(C)[C@H](C)CC[C@]2(C)[C@@H]1C[C@@H](O)[C@H]1O[C@]12C (stereo partly drawn)	25
COc1c(OC)c(O)c2c(=O)cc(-c3ccc(O)cc3)oc2c1OC [XANTHOMICROL]	3.6

1. COc1ccc(-c2cc(=O)c3c(OC)c(OC)c(OC)c(OC)c3o2)cc1 [TANGERETIN]
2. COc1cc(-c2cc(=O)c3c(O)c(OC)c(OC)c(OC)c3o2)ccc1O
Just tell me: smaller Ki value, 1 or 2 ? Your answer should be the label attached to the chosen record.
1
